Ref: the supplement of paper PMC6555819

# reported PBM binding z-score; entries follow
System: RARb:RXRa (NR concentration 270 nM, RXRa partner concentration 90 nM)
Assay: PBM binding z-score (relative to random genomic background probes); higher = stronger binding; sequences stand for … in GC…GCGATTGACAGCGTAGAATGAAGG
Quantity Name: PBM binding z-score

• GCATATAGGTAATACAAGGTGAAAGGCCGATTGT = 0.547
• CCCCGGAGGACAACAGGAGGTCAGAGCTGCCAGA = 2.86
• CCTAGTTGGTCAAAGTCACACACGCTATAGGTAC = 1.42
• AGAATGAGGTTACTAAGATCAGGGAATTGCGGTC = 1.74
• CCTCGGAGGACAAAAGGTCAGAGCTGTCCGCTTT = 4.61
• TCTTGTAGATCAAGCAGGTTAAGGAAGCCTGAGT = 0.0755

###

# reported PBM binding z-score; entries follow
Test system: PPARg DBDmut:RXRa IVT, anti-PPARg (DBD mutation: PPARg1 K132A/R137A, NR concentration 270 nM, RXRa partner concentration 90 nM)
Assay: PBM binding z-score (relative to random genomic background probes); higher = stronger binding; sequences stand for … in GC…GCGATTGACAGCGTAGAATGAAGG
Quantity Name: PBM binding z-score

• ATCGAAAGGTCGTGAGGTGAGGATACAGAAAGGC = 1.55
• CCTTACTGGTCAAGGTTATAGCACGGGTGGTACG = 0.06
• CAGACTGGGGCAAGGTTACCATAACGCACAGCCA = 1.14
• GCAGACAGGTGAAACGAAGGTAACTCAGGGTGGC = 0.0896
• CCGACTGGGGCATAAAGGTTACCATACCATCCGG = -0.548
• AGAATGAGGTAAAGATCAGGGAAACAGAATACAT = 1.8
• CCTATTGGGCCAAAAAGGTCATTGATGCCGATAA = 0.177
• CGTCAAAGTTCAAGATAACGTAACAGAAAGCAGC = 1.5
• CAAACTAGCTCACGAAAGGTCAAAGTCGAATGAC = 0.536
• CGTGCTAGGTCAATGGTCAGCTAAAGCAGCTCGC = 0.168
• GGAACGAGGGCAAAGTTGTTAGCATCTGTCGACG = 0.128
• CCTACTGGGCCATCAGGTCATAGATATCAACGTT = 0.923

###

Tested on: LXRa:RXRa (NR concentration 270 nM, RXRa partner concentration 90 nM)
Experiment: PBM binding z-score (relative to random genomic background probes); higher = stronger binding; sequences stand for … in GC…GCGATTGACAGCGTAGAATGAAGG
# reported PBM binding z-score; entries follow
Quantity Name: PBM binding z-score

- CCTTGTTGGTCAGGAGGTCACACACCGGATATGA: 3.45
- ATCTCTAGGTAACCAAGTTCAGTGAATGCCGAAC: 1.04
- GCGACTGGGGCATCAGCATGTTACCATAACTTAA: -0.551
- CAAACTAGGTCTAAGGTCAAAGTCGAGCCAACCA: 4.6
- TCTTGTAGATCTAGCAGGTTAAGAAAGCCTGAGT: 0.398
- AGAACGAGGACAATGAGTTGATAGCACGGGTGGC: -0.562
- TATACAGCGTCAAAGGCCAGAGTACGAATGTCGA: -0.473
- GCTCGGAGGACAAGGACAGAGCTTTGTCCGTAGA: -0.825
- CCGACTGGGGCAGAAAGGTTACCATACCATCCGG: 0.432
- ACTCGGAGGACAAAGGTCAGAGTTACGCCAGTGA: 4.17
- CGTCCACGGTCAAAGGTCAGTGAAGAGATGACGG: 4.83
- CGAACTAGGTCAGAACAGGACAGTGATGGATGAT: 0.678
- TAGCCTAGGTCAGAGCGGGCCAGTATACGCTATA: 0.815
- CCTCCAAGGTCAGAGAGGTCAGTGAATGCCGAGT: 5.09
- TCTATTAGTTGAAGGGCAACCGACGAGTCCGTTT: 1.21
- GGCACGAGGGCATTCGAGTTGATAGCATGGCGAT: 1.79
- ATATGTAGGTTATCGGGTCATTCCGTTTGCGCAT: 3.17
- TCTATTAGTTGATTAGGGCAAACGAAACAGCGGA: 0.43
- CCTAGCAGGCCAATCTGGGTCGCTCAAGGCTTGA: 0.838
- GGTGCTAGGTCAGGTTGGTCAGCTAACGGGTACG: 1.33
- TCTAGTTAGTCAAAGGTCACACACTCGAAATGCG: 5.78
- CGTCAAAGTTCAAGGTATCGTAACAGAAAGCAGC: 5.39
- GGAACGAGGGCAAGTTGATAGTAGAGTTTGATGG: 0.53
- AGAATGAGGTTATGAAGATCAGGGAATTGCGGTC: 1.53
- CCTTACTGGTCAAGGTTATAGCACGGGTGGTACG: 0.968
- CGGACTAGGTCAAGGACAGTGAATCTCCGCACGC: 1.81

###

Test system: RARa homodimer (NR concentration 270 nM)
Assay: PBM binding z-score (relative to random genomic background probes); higher = stronger binding; sequences stand for … in GC…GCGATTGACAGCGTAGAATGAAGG
Tag: yes if measured PBM binding z-score is not below 0.7, no if it is.

- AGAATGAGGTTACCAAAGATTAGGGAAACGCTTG: no
- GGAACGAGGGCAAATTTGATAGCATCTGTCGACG: no
- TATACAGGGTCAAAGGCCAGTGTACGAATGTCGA: no
- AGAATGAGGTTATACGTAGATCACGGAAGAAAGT: no
- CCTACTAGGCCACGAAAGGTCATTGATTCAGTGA: yes
- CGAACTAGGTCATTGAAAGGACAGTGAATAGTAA: yes
- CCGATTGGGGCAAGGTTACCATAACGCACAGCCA: no
- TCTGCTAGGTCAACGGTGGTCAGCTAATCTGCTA: no
- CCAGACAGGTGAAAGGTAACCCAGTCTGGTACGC: no
- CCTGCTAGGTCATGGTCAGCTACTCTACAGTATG: no
- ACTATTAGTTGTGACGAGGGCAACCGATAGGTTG: no
- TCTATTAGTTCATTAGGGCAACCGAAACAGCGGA: yes
- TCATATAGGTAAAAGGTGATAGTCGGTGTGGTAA: yes
- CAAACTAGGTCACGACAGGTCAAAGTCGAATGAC: yes
- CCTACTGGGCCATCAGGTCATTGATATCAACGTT: no
- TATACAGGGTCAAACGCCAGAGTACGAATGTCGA: yes
- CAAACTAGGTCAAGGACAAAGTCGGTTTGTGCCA: no
- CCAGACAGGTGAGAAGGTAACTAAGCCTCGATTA: no
- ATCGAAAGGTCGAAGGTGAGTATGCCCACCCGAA: no
- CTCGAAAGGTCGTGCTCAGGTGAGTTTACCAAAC: no
- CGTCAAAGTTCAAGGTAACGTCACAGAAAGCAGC: yes
- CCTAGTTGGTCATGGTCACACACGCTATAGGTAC: yes
- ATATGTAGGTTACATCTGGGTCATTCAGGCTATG: no
- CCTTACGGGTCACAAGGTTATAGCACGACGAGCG: yes
- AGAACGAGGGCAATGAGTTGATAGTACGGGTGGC: no

###

Test system: RARg homodimer (NR concentration 270 nM)
Assay: PBM binding z-score (relative to random genomic background probes); higher = stronger binding; sequences stand for … in GC…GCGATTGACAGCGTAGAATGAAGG
Tag: Yes if measured PBM binding z-score is not below 4, No if it is.

- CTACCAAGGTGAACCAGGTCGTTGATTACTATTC: No
- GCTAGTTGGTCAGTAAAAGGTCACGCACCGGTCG: Yes
- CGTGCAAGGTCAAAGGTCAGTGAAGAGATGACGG: Yes
- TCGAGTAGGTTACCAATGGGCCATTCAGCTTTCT: No
- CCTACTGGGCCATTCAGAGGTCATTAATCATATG: No
- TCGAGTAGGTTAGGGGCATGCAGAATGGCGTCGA: No
- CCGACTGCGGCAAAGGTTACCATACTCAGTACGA: No
- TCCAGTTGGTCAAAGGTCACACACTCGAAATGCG: Yes
- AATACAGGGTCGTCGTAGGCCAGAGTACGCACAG: No
- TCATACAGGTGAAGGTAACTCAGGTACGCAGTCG: No
- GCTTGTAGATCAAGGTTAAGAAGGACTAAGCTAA: No
- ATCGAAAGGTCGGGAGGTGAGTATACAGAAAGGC: No
- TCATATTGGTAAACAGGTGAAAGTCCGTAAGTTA: No
- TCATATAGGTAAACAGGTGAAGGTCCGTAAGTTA: No
- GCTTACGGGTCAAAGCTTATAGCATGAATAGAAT: Yes
- TAGCCTAGGTCATGCGGGCCAGGATAGTGTCGGC: Yes
- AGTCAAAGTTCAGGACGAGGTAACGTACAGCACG: Yes
- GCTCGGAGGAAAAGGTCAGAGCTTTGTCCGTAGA: Yes
- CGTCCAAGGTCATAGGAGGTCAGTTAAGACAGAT: Yes
- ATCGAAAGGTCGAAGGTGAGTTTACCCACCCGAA: No
- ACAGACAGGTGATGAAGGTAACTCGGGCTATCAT: No
- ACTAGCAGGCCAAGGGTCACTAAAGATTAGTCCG: No
- GGAACGTGGGCAAAGTTGATAGCATCTGTCGACG: No
- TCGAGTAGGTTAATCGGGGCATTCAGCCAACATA: No
- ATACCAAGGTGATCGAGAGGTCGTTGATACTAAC: No
- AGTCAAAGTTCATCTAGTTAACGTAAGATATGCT: Yes
- TCTTGCAGATCAAGCAGGTTAAGAAAGCCTGAGT: No
- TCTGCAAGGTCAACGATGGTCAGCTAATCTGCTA: Yes
- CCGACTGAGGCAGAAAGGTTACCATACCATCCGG: No
- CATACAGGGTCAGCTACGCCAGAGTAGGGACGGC: Yes
- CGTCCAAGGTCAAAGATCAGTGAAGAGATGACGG: Yes
- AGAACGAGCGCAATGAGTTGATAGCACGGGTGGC: No
- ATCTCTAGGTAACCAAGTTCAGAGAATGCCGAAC: No
- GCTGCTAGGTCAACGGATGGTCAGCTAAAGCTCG: Yes
- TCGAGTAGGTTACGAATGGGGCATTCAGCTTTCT: No
- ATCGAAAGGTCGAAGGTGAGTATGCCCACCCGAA: No
- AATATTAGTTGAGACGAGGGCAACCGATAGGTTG: No
- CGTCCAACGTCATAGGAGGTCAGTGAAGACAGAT: No
- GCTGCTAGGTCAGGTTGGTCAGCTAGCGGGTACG: No
- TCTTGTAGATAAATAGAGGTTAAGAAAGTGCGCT: No
- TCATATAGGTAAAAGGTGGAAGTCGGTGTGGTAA: No
- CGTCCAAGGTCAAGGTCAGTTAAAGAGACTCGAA: Yes
- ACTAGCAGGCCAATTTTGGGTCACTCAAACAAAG: No
- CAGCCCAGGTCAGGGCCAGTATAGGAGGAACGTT: No
- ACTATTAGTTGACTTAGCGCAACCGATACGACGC: No
- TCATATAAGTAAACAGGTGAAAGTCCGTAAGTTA: No
- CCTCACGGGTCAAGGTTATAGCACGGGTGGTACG: Yes
- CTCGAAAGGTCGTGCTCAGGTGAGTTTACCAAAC: Yes
- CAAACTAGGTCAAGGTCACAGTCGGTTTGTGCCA: Yes
- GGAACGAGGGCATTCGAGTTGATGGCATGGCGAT: No
